Biological target: T1, mouse TREM2 on BWZ cells (mouse, UniProt Q99NH8 19-227)
T1 construct: whole, on cells; also called BWZ Mouse TREM2
T1 sequence (looked up): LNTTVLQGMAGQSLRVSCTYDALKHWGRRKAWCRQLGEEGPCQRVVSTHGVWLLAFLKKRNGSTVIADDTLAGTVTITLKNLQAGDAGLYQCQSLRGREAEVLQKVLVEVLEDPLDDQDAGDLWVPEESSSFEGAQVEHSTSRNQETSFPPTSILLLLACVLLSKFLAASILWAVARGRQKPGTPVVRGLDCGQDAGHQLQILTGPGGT
Assay: FACS, BWZ cells
OBSERVABLE: binding result

binding result measured on T1-12 (antibody, IgG1, V domains shown, huIgG1; also called TI-12; ADI-19079) VH: QLQLQESGPGLVKPSETLSLTCTVSGGSISSSSYYWGWIRQPPGKGLEWIGSIYYSGSTYYNPSLKSRVTISVDTSKNQFSLKLSSVTAADTAVYYCARGGGYPWEAFDYWGKGTTVTVSS VL: EIVLTQSPATLSLSPGERATLSCRASQSVSSYLAWYQQKPGQAPRLLIYDASNRATGIPARFSGSGSGTDFTLTISSLEPEDFAVYYCQQYTSWPLTFGGGTKVEIK = no binding

binding result measured on T1-18 (antibody, IgG1, V domains shown, huIgG1; also called TI-18; ADI-19085) VH: EVQLVESGGGLVQPGRSLRLSCAASGFTFDDYAMHWVRQAPGKGLEWVSGISWNSGDIGYADSVKGRFTISRDNAKNTLYLQMNSLRAEDTALYYCAKGPRMVTHLDVWGQGTMVTVSS VL: DIQMTQSPSTLSASVGDRVTITCRASQSISSWLAWYQQKPGKAPKLLIYKASSLESGVPSRFSGSGSGTEFTLTISSLQPDDFATYYCQQDSIYPITFGGGTKVEIK = no binding

binding result measured on T1-21 (antibody, IgG1, V domains shown, huIgG1; also called TI-21; ADI-19088) VH: EVQLVESGGGLVQPGGSLRLSCAASGFTFSSYSMNWVRQAPGKGLEWVSYISSSSSTIYYADSVKGRFTISRDNAKNSLYLQMNSLRAEDTAVYYCARGGPLGYGDYKGMDVWGQGTTVTVSS VL: DIQLTQSPSSLSASVGDRVTITCRASQSISSFLNWYQQKPGKAPKLLIYAASSLQSGVPSRFSGSGSGTDFTLTISSLQPEDFATYYCQQSYSDLTFGGGTKVEIK = no binding
